study target: Vasopressin V2 receptor (Homo sapiens)
Sequence (P30518 whole entry): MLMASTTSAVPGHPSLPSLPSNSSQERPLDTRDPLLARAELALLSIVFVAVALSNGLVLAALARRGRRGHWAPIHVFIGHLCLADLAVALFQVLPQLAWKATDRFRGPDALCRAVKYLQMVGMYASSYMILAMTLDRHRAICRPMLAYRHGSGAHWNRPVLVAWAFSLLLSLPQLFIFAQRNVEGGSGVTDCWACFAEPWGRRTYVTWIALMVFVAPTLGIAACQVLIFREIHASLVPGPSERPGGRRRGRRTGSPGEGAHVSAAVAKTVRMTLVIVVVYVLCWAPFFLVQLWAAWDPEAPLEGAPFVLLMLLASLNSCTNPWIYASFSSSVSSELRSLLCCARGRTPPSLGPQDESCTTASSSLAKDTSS
pIC50: −log10 of the molar value.

{"query smiles": "O=C(Cn1c(-c2ccccc2)nc2ccc(OCCCN3CCOCC3)cc2c1=O)NCC1CC1", "study target": "Vasopressin V2 receptor (Homo sapiens)", "pIC50": "< 4.00"}

---

Sequence of the target: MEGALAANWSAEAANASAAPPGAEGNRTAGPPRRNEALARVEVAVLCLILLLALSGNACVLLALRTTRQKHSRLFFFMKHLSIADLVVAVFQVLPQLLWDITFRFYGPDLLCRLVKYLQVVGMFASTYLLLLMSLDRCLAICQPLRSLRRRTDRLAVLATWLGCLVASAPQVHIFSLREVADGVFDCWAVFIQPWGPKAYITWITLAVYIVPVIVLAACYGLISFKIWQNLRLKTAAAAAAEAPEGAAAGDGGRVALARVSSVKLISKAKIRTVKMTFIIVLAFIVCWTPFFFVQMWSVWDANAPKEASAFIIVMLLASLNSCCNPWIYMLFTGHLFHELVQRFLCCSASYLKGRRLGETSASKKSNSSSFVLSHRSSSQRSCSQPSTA

{"query smiles": "O=C(Cn1c(-c2ccccc2)nc2ccc(OCCCN3CCOCC3)cc2c1=O)NCC1CC1", "IC50": "> 100 µM"}

Origin of measurements: ChEMBL document CHEMBL1221376
